Every entry's value here was drawn from the supplement of paper PMC12764529.

Assay: folding stability dG unfold from trypsin proteolysis; higher = more stable
Give measured folding stability dG unfold for each item. Keep answers brief.
Give bare numbers, in kcal/mol.

Study these solved cases before continuing.
>  <Item sequence>
SAGGSASMSKTTTETSPDSETTTTTYYPNGTVTTTKTTTVGEGTTTTTTTTKVLFIPGPGVLVPEPSAGGSA [r15_746_JUSTAS]

>  <Value unit>
kcal/mol

>  <folding stability dG unfold>
-0.174

$$$$
>  <Item sequence>
SAGGSAGGSAGATVLQQGTATPPDGTTVTFNYNITLPSDVLISVDKNPPNPDLVTKIEAGSAGGSAGGSAGG [r11_781_JUSTAS]

>  <Value unit>
kcal/mol

>  <folding stability dG unfold>
0.154

$$$$
>  <Item sequence>
SAGGSAKLIVADVSPLPDGGFAVNVTFVGENGEPVAVKPFYAGSPEELLAALKKFAEENGYEVVVASAGGSA [r15_242_TrMRF]

>  <Value unit>
kcal/mol

>  <folding stability dG unfold>
3.6

$$$$
>  <Item sequence>
SAGEEVYLITVRIIDPETNEVKEITKLIKNKTEDEILEELRKLLEELGIELPEGAKVEITITKIKPPPESAG [r5_230_TrROS_Hall]

>  <Value unit>
kcal/mol

>  <folding stability dG unfold>
3.53

$$$$
>  <Item sequence>
SAGGTATLVIPRIYKGSPEEAARAVQEIADALAALGYDVEVDATVYPVGDYLVVTVTVTVTAPPDSPLASAG [r5_217_TrMRF]

>  <Value unit>
kcal/mol

>  <folding stability dG unfold>
2.62

$$$$
>  <Item sequence>
SAGGSAGGMKVRVKIEVEGKTLEIEIEVPEEKREEALEKAKKLAEKLAEELDVEVKIVEVEEEPSAGGSAGG [r6_459_TrROS_Hall]

>  <Value unit>
kcal/mol

>  <folding stability dG unfold>
1.04

$$$$

Go through the items and report each one's folding stability dG unfold.
1. SAGGSAGGSAGPTLTLTLPPGKLSPEFLEALAAQGYTLGEVTVTEVPEDDTVVVTVTTAPSAGGSAGGSAGG [r11_345_JUSTAS]
2. SAGGSAGGSAETVTITLTVPPGASVEEILAALKAKYPDITSVSVERREDGYLKVTVTVRLDSAGGSAGGSAG [r3_371_TrROS_Hall]
3. SAMRIEIVRDPETGELVVRVVLPREEAEEAAEELARRLAEAGLEVEVKVVRIEETDGETRVVVEIKVKPSAG [r14_345_TrROS_Hall]
4. SAGGSAGGSASMNVLVVRTKPDGTPEVTEVETGDPEKAKEEIAKRSNVTTPEGTVTVELTGVSAGGSAGGSA [r18_457_JUSTAS]
5. SAGGERLTLEELEELLKNLPPGVEEVTITLKLEVEVRTEVRLNEDGSLETRTETRVTTELTLTLPKESAGGS [r16_708_TrROS_Hall]
6. SNKKWRTIELDFWFRTPEQAREWANNLARRLPPDNIDSISVEVEPFPVRKNGEPVGPVYRFKLTIMVRPESA [r9_605_TrROS]

1: 1.4; 2: 5.28; 3: 3.74; 4: -1.02; 5: 2.5; 6: 2.33

Go through the items and report each one's folding stability dG unfold.
1. SAGGSAGGKNWRTIPFMIWIPPGAPPIEFEIPLPDGWKVEIEISVVRNPDGWYFIMFSITVQPDSAGGSAGG [r6_510_TrROS]
2. SAGGAPLVPVSTETYTVKDSKGNEVTITIETLPDGSYRITITYPNGEVKEYEFPSKEEAEKLEITVNPSAGG [r13_109_JUSTAS]

1. 3.12
2. 3.63
